# credit: ChEMBL document CHEMBL5058577

Test system: U2OS
measurement_description: Multiplex assay against U2OS
Type: toxicity, cell-based
condition_notes: human, 12 h, 1 µM, compound concentration 1 uM, replicate 1
endpoint: Population Normal (%)

Give reported Population Normal (%) value for O=S(=O)(c1ccccc1)c1cnc2c(N3CCNCC3)cccc2c1 [INTEPIRDINE]
98%

Give reported Population Normal (%) value for C[C@H](NC(=O)c1c(C(F)F)nn(C)c1Oc1cccc(C(F)(F)F)c1)c1ccc(C(=O)O)cc1
96%

More entries:
Give reported Population Normal (%) value for N#Cc1c(N)nc(SCc2csc(-c3ccc(Cl)cc3)n2)c(C#N)c1-c1ccc(OCCO)cc1
94%

Give reported Population Normal (%) value for CCCC(CCC)C(=O)O
93%

Give reported Population Normal (%) value for Cc1ccc(/C(=C\CN2CCCC2)c2ccccn2)cc1
97%

====

System: HEK-293T
measurement_description: Multiplex assay against HEK293T
Assay type: toxicity, cell-based
condition_notes: human, 24 h, 10 µM, compound concentration 10 uM, replicate 1
endpoint: Population Healthy Nuclei (%)
Quick reminder: number only, in %, skip the unit.

Give reported Population Healthy Nuclei (%) value for Cc1ccc(C(C)(O)c2nc3ccccc3s2)c(C)c1 (stereo not given)
82

Give reported Population Healthy Nuclei (%) value for COc1cc(NC(=O)CCN2CCC(OC(=O)Nc3ccccc3-c3ccccc3)CC2)c(Cl)cc1CNC[C@H](O)c1ccc(O)c2[nH]c(=O)ccc12
12

Give reported Population Healthy Nuclei (%) value for O=C1COc2nccc(-c3ccccc3F)c2CN1Cc1cc(C(F)(F)F)cc(C(F)(F)F)c1
76

Give reported Population Healthy Nuclei (%) value for CC(=O)NCCc1c(Cc2ccccc2)[nH]c2ccccc12
81

Let us move to another entry and its Population Healthy Nuclei (%).
Give reported Population Healthy Nuclei (%) value for CN1CCN(c2nc3cc(C(F)(F)F)ccc3n3cccc23)CC1.O=C(O)/C=C\C(=O)O.O=C(O)/C=C\C(=O)O
77

====

Tested on: HEK-293T
measurement_description: Multiplex assay against HEK293T
Format: toxicity, cell-based
condition_notes: human, 12 h, 10 µM, compound concentration 10 uM, replicate 1
endpoint: Population Tubulin-Different-Phenotype (%)
Quick reminder: number only, in %, skip the unit.

Some compounds with known Population Tubulin-Different-Phenotype (%) results, for comparison:
Give reported Population Tubulin-Different-Phenotype (%) value for O=C(NCCO)c1cccc(-c2cc(Nc3ccc(OC(F)(F)F)cc3)ncn2)c1
49

Give reported Population Tubulin-Different-Phenotype (%) value for Cc1ccc(-c2ccc(F)cc2COc2ccc(CCC(=O)O)cc2)cc1
33

Let us move to another entry and its Population Tubulin-Different-Phenotype (%).
Give reported Population Tubulin-Different-Phenotype (%) value for CC1(COc2ccc3c(c2)ncn3-c2ccc3cccc(N4CCC(N)CC4)c3n2)COC1
68

====

Population Healthy Nuclei (%): recorded values
Test system: HEK-293T
measurement_description: Multiplex assay against HEK293T
Type: toxicity, cell-based
condition_notes: human, 48 h, 1 µM, compound concentration 1 uM, replicate 1
Quick reminder: number only, in %, skip the unit.

Answer with Population Healthy Nuclei (%) of CC1(COc2ccc3c(c2)ncn3-c2ccc3cccc(N4CCC(N)CC4)c3n2)COC1 measured for HEK-293T.
72

Answer with Population Healthy Nuclei (%) of CC(=O)NCCc1c(Cc2ccccc2)[nH]c2ccccc12 measured for HEK-293T.
78

Answer with Population Healthy Nuclei (%) of O=C(NCCO)c1cccc(-c2cc(Nc3ccc(OC(F)(F)F)cc3)ncn2)c1 measured for HEK-293T.
80

Answer with Population Healthy Nuclei (%) of C[C@@H]1C[C@H]2[C@@H]3CCC4=CC(=O)C=C[C@]4(C)[C@@]3(F)[C@@H](O)C[C@]2(C)[C@@]1(O)C(=O)CO measured for HEK-293T.
77

Answer with Population Healthy Nuclei (%) of O=C(O)Cc1ccccc1Nc1c(Cl)cccc1Cl measured for HEK-293T.
82

Answer with Population Healthy Nuclei (%) of Cc1ccc(/C(=C\CN2CCCC2)c2ccccn2)cc1 measured for HEK-293T.
79

More entries:
Answer with Population Healthy Nuclei (%) of CN1CCN(c2nc3cc(C(F)(F)F)ccc3n3cccc23)CC1.O=C(O)/C=C\C(=O)O.O=C(O)/C=C\C(=O)O measured for HEK-293T.
78

Answer with Population Healthy Nuclei (%) of C[C@H](NC(=O)c1c(C(F)F)nn(C)c1Oc1cccc(C(F)(F)F)c1)c1ccc(C(=O)O)cc1 measured for HEK-293T.
79

====

System: Fibroblast
measurement_description: Multiplex assay against human fibroblast
Assay type: toxicity, cell-based
condition_notes: 12 h, 1 µM, compound concentration 1 uM, replicate 1
// label = criterion met if Population Fragmented Nuclei (%) is not less than 20%, otherwise criterion not met

State whether the measured Population Fragmented Nuclei (%) reaches 20%, counting equality as reaching it, for O=C(NCCO)c1cccc(-c2cc(Nc3ccc(OC(F)(F)F)cc3)ncn2)c1
criterion not met

More entries:
State whether the measured Population Fragmented Nuclei (%) reaches 20%, counting equality as reaching it, for CN1CCN2c3ncccc3Cc3ccccc3C2C1 (stereo not given)
criterion not met

State whether the measured Population Fragmented Nuclei (%) reaches 20%, counting equality as reaching it, for COc1c(C)cc(NC(=O)c2nn(Cc3ccc(F)cc3)c3c2CN(C(=O)c2ccc[nH]2)C[C@]3(C)C(N)=O)cc1C
criterion met

State whether the measured Population Fragmented Nuclei (%) reaches 20%, counting equality as reaching it, for CCOc1c2c(c(OCC)c3ncccc13)CN(c1ccc(CS(=O)(=O)NC(=O)Cc3ccccc3OC)cc1C)C2=O
criterion not met

State whether the measured Population Fragmented Nuclei (%) reaches 20%, counting equality as reaching it, for CNC[C@H](O)c1ccc(O)c(O)c1 [EPINEPHRINE]
criterion not met

====

Population Healthy Nuclei (%): recorded values
Test system: U2OS
measurement_description: Multiplex assay against U2OS
Assay type: toxicity, cell-based
condition_notes: human, 12 h, 1 µM, compound concentration 1 uM, replicate 2
Quick reminder: number only, in %, skip the unit.

Give reported Population Healthy Nuclei (%) value for CSCC[C@H](NC=O)C(=O)N[C@@H](CC(C)C)C(=O)N[C@@H](Cc1ccccc1)C(=O)O
75

Give reported Population Healthy Nuclei (%) value for CCCN1CCC[C@@H]2Cc3n[nH]cc3C[C@H]21.Cl [QUINPIROLE HYDROCHLORIDE]
67

More entries:
Give reported Population Healthy Nuclei (%) value for CN1CCN(c2nc3cc(C(F)(F)F)ccc3n3cccc23)CC1.O=C(O)/C=C\C(=O)O.O=C(O)/C=C\C(=O)O
73

Give reported Population Healthy Nuclei (%) value for Cc1nc2ccc(Oc3ccc(F)cc3)cc2c(=O)n1C[C@H]1CCCN(C(C)C)C1.Cl
81

====

Test system: Fibroblast
measurement_description: Multiplex assay against human fibroblast
Format: toxicity, cell-based
condition_notes: 24 h, 1 µM, compound concentration 1 uM, replicate 2
TRUE if Population Pyknosed Nuclei (%) is below 20%. FALSE if not; exact matches included in FALSE.

API: query returns whether the compound falls strictly under 20% in Population Pyknosed Nuclei (%). Query: CC(C)(C)c1ccc(S(=O)(=O)Nc2ccc(Cl)cc2C(=O)c2cc[n+]([O-])cc2)cc1
TRUE

API: query returns whether the compound falls strictly under 20% in Population Pyknosed Nuclei (%). Query: CCOc1c2c(c(OCC)c3ncccc13)CN(c1ccc(CS(=O)(=O)NC(=O)Cc3ccccc3OC)cc1C)C2=O
FALSE

API: query returns whether the compound falls strictly under 20% in Population Pyknosed Nuclei (%). Query: C[C@@H]1C[C@H]2[C@@H]3CCC4=CC(=O)C=C[C@]4(C)[C@@]3(F)[C@@H](O)C[C@]2(C)[C@@]1(O)C(=O)CO
TRUE

API: query returns whether the compound falls strictly under 20% in Population Pyknosed Nuclei (%). Query: Cl.Clc1ccc2nsnc2c1NC1=NCCN1 [TIZANIDINE HYDROCHLORIDE]
FALSE

API: query returns whether the compound falls strictly under 20% in Population Pyknosed Nuclei (%). Query: CC(=O)NCCc1c(Cc2ccccc2)[nH]c2ccccc12
FALSE

API: query returns whether the compound falls strictly under 20% in Population Pyknosed Nuclei (%). Query: CSc1ccccc1N1CCN(CCCCCC(=O)NC2CCCc3ccccc32)CC1.Cl (centres undefined)
FALSE

API: query returns whether the compound falls strictly under 20% in Population Pyknosed Nuclei (%). Query: O=S(=O)(c1ccccc1)c1cnc2c(N3CCNCC3)cccc2c1 [INTEPIRDINE]
FALSE

API: query returns whether the compound falls strictly under 20% in Population Pyknosed Nuclei (%). Query: CNC[C@H](O)c1ccc(O)c(O)c1 [EPINEPHRINE]
TRUE

API: query returns whether the compound falls strictly under 20% in Population Pyknosed Nuclei (%). Query: COc1cc(NC(=O)CCN2CCC(OC(=O)Nc3ccccc3-c3ccccc3)CC2)c(Cl)cc1CNC[C@H](O)c1ccc(O)c2[nH]c(=O)ccc12
TRUE

API: query returns whether the compound falls strictly under 20% in Population Pyknosed Nuclei (%). Query: Cc1ccc(F)cc1C(=O)Nc1ccc(C(=O)N2Cc3cccn3Cc3ccccc32)c(Cl)c1
FALSE

More entries:
API: query returns whether the compound falls strictly under 20% in Population Pyknosed Nuclei (%). Query: COc1c(C)cc(NC(=O)c2nn(Cc3ccc(F)cc3)c3c2CN(C(=O)c2ccc[nH]2)C[C@]3(C)C(N)=O)cc1C
FALSE

API: query returns whether the compound falls strictly under 20% in Population Pyknosed Nuclei (%). Query: Cc1ccc(/C(=C\CN2CCCC2)c2ccccn2)cc1
FALSE

API: query returns whether the compound falls strictly under 20% in Population Pyknosed Nuclei (%). Query: CC1(COc2ccc3c(c2)ncn3-c2ccc3cccc(N4CCC(N)CC4)c3n2)COC1
TRUE

API: query returns whether the compound falls strictly under 20% in Population Pyknosed Nuclei (%). Query: COc1cc(C(=O)N(CCCc2ccccc2)Cc2ccc(CC(=O)O)cc2)cc(OC)c1C
TRUE

API: query returns whether the compound falls strictly under 20% in Population Pyknosed Nuclei (%). Query: Cc1ccccc1C(=O)Nc1ccc(C(=O)N2CCCC(N(C)C)c3ccccc32)cc1.Cl (centres undefined)
FALSE

API: query returns whether the compound falls strictly under 20% in Population Pyknosed Nuclei (%). Query: CC[C@H]1OC(=O)[C@H](C)[C@@H](O[C@H]2C[C@@](C)(OC)[C@@H](O)[C@H](C)O2)[C@H](C)[C@@H](O[C@@H]2O[C@H](C)C[C@H](N(C)C)[C@H]2O)[C@@]2(C)CC(C)=C(O2)[C@H](C)[C@@H](O)[C@]1(C)O
TRUE

API: query returns whether the compound falls strictly under 20% in Population Pyknosed Nuclei (%). Query: N[C@@]1(C(=O)O)CO[C@H]2[C@H](C(=O)O)[C@H]21
TRUE

API: query returns whether the compound falls strictly under 20% in Population Pyknosed Nuclei (%). Query: O=C(O)c1cc2ccccc2c(Cc2c(O)c(C(=O)O)cc3ccccc23)c1O
TRUE

API: query returns whether the compound falls strictly under 20% in Population Pyknosed Nuclei (%). Query: CN(C)CCCc1cc(C(=O)Nc2ccc(-c3ccncc3)cc2)ccc1O.Cl.Cl
FALSE
